# Test system: RAW 264.7 cells
# Assay: Cell viability (MTT) assay
# Type: cell-based
# Reported Conditions: RAW 264.7 cells, 24 h; mean ± SEM, n = 3
Rule: Cell Viability LD50 below 100 µM gives MET, anything at or above gives NOT MET.

{"Compound": "Oc1cc(O)cc(/C=C/c2ccc3cc(O)ccc3c2)c1 [Compound 2]", "Tested On": "RAW 264.7 cells", "Category Label": "MET"}
{"Compound": "Oc1cc(O)cc(/C=C/c2cnc3cc(O)ccc3c2)c1 [Compound 3]", "Tested On": "RAW 264.7 cells", "Category Label": "NOT MET"}
{"Compound": "Oc1cc(O)cc(/C=C/c2ncc3cc(O)ccc3n2)c1 [Compound 7]", "Tested On": "RAW 264.7 cells", "Category Label": "MET"}
{"Compound": "Oc1cc(O)cc(/C=C/c2ccc3cc(O)ccc3n2)c1 [Compound 4]", "Tested On": "RAW 264.7 cells", "Category Label": "NOT MET"}
{"Compound": "Oc1cc(O)cc(/C=C/c2cc3ccc(O)cc3cn2)c1 [Compound 5]", "Tested On": "RAW 264.7 cells", "Category Label": "MET"}

Problem: Given Oc1cc(O)cc(/C=C/c2cnc3cc(O)ccc3n2)c1 [Compound 6] , is recorded Cell Viability LD50 strictly lower than 100 µM?
Result: NOT MET
